Data origin, for the record: PubChem BioAssay (NCI)

test system: HOP-92 NSCLC; assay: NCI-60 one-dose screen, 48 h; conditions: 10 µM unless noted
The panel holds about 83,000 compounds, 20% with a hit somewhere; the sample as a whole holds those more often. Calls of active or inactive are those of the source. The calls were made as follows: active = growth percent below 10; inactive = the rest.
Pick from active, inactive when you respond.

In: For NS(=O)(=O)Oc1ccc(NC(=O)C23CC4CC(CC(C4)C2)C3)cc1Cl , which call appears in the assay record?
Out: inactive

In: # iterate: Cc1cc(NS(=O)(=O)c2ccccc2)c(OS(=O)(=O)c2ccccc2)cc1C
Out: inactive

In: # iterate: Cc1c(C)c2c(c(C)c1NC(=O)/C=C\C(=O)O)CCC(C)(CCCC(C)CCCC(C)CCCC(C)C)O2 (stereo not given)
Out: inactive

In: # iterate: CCOC(=O)N1CCc2c(sc3c2C(=O)N[C@H](c2ccc(OC)cc2)N3)C1
Out: inactive

In: # iterate: COc1ccc(-c2nc3ccccn3c2/C=C/C(=O)c2cc(OC)c(OC)c(OC)c2)cc1
Out: inactive

In: # iterate: Cc1c(C(N)=O)sc2nc(C)n(/N=c3\scc(-c4ccccc4)n3Cc3ccccc3)c(=O)c12
Out: active

In: # iterate: Cc1nc2ccc(C(=O)NCc3cc(C(=O)O)c(C)o3)cc2nc1C
Out: inactive

In: # iterate: O=C(Nc1ccccc1)c1sc(-c2cccc(C(F)(F)F)c2)cc1O
Out: active

In: # iterate: CC(C)CCC[C@@H](C)[C@H]1CCC2C3=CCC4C(=O)C=CC(=O)C4C3CC[C@@]21C (stereo not given in full)
Out: active

###

I'd be grateful if you could share measured growth for these entries.
system: SF-268 CNS; test: NCI-60 one-dose screen, 48 h (100 = growth as untreated, 0 = no growth, -100 = all killed); details: 10 µM unless noted
The panel holds about 83,000 compounds, 20% with a hit somewhere; the sample as a whole holds those more often. Activity calls are given as the source filed them. The calls were made as follows: active = growth percent below 10; inactive = the rest.

[[record]]
molecule = "COc1cc(NC(=O)c2cccc(-c3cc(=O)c4c(O)c(OC)c(OC)cc4o3)c2)cc(OC)c1OC"
test_readout = "growth"
result = "61.9% (inactive)"

[[record]]
molecule = "CC(C)(C)CC(C)(C)Nc1c(-c2ccc(-c3ccccc3)cc2)nc2cnccn12"
test_readout = "growth"
result = "81.5% (inactive)"

[[record]]
molecule = "O=c1[nH]c(NCc2nnnn2-c2ccc(Br)cc2)nc2sc3c(c12)CCCC3"
test_readout = "growth"
result = "98.7% (inactive)"


Kindly give each listed record's growth.
1. O=C(/C=C/C12c3ccccc3C(c3ccccc31)C1C(=O)N(c3ccccc3)C(=O)C12)c1ccc(Cl)cc1 (centres undefined)
2. C=CC(=O)Nc1cccc(C)c1Nc1cc(-c2cccnc2Cc2c(C)c(OC)cc(OC)c2C)ncn1

Out:
1: 43% (inactive); 2: 6.81% (active)

Kindly give each listed record's growth.
1. COc1ccc(-c2c(N)n[nH]c2-c2ccccc2O)cc1OC
2. C[C@@H]1CC[C@@H]2[C@@H]1[C@H](OC(=O)c1ccc3ccccc3c1)[C@]1(C3CCCCC3)C[C@@H](OC(=O)CO)[C@@]2(C)O1
3. CS(=O)(=O)c1ccc(-c2[nH]c3ccc(F)cc3c2/C=N/O)cc1
4. COc1ccc(OC)c(/C=C2\COc3ccc(O)cc3C2=O)c1
5. COc1ccc2cc(-c3ccc(C(=O)NN)c(C)n3)ccc2c1
6. C=C1C(=O)O[C@H]2[C@H]1CC/C(COC(=O)/C=C/C(=O)NCc1ccc(Cn3c(=O)sn(-c4ccccc4)c3=O)cc1)=C\CC[C@@]1(C)O[C@@H]21
7. CCOC(=O)c1nnn(-c2ccccc2)c1C1=CN(C)CCC1

Out:
1: 100% (inactive); 2: 31.4% (inactive); 3: 93% (inactive); 4: 99.2% (inactive); 5: 91.9% (inactive); 6: -6.21% (active); 7: 92.4% (inactive)

Kindly give each listed record's growth.
1. Cc1cnc(Nc2ccc(N3CCN(C)CC3)cc2)nc1Nc1ccc(Cl)c(NS(=O)(=O)C(C)(C)C)c1
2. COc1ccc(/C=C(\C#N)n2nnc3ccccc32)cc1
3. N#Cc1c(N)n2c(nc1=Nc1ccc(Cl)cc1)sc1cc(Cl)ccc12
4. N#Cc1c(NC(=O)c2ccccc2I)sc2c1CCCC2
5. CN(C)CCCCNc1ccc(NCCCCN(C)C)c2c1C(=O)c1c(O)ccc(O)c1C2=O

Out:
["15.7% (inactive)", "21.3% (inactive)", "56.4% (inactive)", "58.1% (inactive)", "76.2% (inactive)"]

Kindly give each listed record's growth.
1. Cc1cn(C2CCCCC2)c(=O)[nH]c1=O
2. CCOc1ccc2nc(-c3cccc(OCC(=O)NC(C)C)c3)nc(Nc3ccc(-c4cn[nH]c4)cc3)c2c1

Out:
1. 108% (inactive)
2. 12.6% (inactive)

###

I'd be grateful if you could share measured growth for these entries.
Tested on: U251 CNS
Test: NCI-60 one-dose screen, 48 h (100 = growth as untreated, 0 = no growth, -100 = all killed)
Details: 10 µM unless noted
Method: Growth inhibition of the U251 human tumor cell line is measured as a screen for anti-cancer activity. Cells are grown in 96 well plates and exposed to the test compound for 48 hours. Compounds are tested at a single concentration, which is 10^-5 M for most compounds. The reported endpoint is percent growth (GI% or GIPRCNT), where numbers from 0 - 100% represent growth inhibition, and numbers from -100% - 0 represent cell death. For example, a value of 40 represents 60% growth inhibition. […]
This is part of a sample that, as a whole, favours compounds with a hit. Of some 83,000 tested, about 20% had one in any assay.
Give bare numbers, in %.

Use the examples below as a reference point.
[[record]]
compound = "CC12CC(C#N)CCC1O2 (stereo not drawn)"
measured_target = "U251 CNS"
test_readout = "growth"
result_number = 103

[[record]]
compound = "C[N+](C)(C)CCOC(OCC[N+](C)(C)C)(c1ccccc1)c1ccccc1"
measured_target = "U251 CNS"
test_readout = "growth"
result_number = 104

[[record]]
compound = "Cc1cc(Cl)nc(N(CCCNc2ccnc3cc(Cl)ccc23)Cc2ccccn2)n1"
measured_target = "U251 CNS"
test_readout = "growth"
result_number = 43.9

[[record]]
compound = "COc1cc(CNC(=O)/C=C/C=C/c2ccc3c(c2)OCO3)ccc1OCc1cn(-c2ccc(Cl)c(Cl)c2)nn1"
measured_target = "U251 CNS"
test_readout = "growth"
result_number = -57.5

[[record]]
compound = "CN(C)c1cnccn1"
measured_target = "U251 CNS"
test_readout = "growth"
result_number = 78.4

[[record]]
compound = "C=C(C)[C@@H]1CC[C@]2(CO)CC[C@]3(C)[C@H](CC[C@@H]4[C@@]5(C)C=C(C#N)C(=O)C(C)(C)[C@@H]5CC[C@]43C)[C@@H]12"
measured_target = "U251 CNS"
test_readout = "growth"
result_number = 9.63


Kindly give each listed record's growth.
1. Cc1nc(Nc2ccc(NC(=S)Nc3ccccc3)cc2)nc2nc(SCc3ccccc3)[nH]c(=O)c12
2. COC1(CC[C@@H](C)COC2OC(CO)C(O)C(O)C2O)O[C@H]2C[C@H]3[C@@H]4CC=C5C[C@@H](OC6OC(CO)C(OC7OC(C)C(O)C(O)C7O)C(O)C6OC6OC(C)C(O)C(O)C6O)CC[C@]5(C)[C@H]4CC[C@]3(C)[C@H]2[C@@H]1C (stereo partly drawn)

Out:
1: 100; 2: -98.1

###

system: MDA-MB-435 melanoma; assay: NCI-60 one-dose screen, 48 h (100 = growth as untreated, 0 = no growth, -100 = all killed); settings: 10 µM unless noted
About 83,000 compounds went through this panel and 20% of them were active in at least one assay; those are over-represented in the sample as a whole.
TEST READOUT: growth (%)
Answers are plain numbers, in %.

[[record]]
record_smiles = "N=C(N)c1ccc(-c2ccc(-c3ccc(Cl)cn3)s2)cc1"
test_readout = "growth"
unit_name = "%"
result_number = -52.6

[[record]]
record_smiles = "O=c1oc2ccc(Cl)cc2cc1-c1cs/c(=N/N=C\\c2ccc(Cl)cc2)n1/N=C/c1ccc(Cl)cc1"
test_readout = "growth"
unit_name = "%"
result_number = 103

[[record]]
record_smiles = "CCN(CC)CCOc1ccc(/C(=C(\\C)c2ccc(OC)c(F)c2)c2ccc(Cl)cc2)cc1"
test_readout = "growth"
unit_name = "%"
result_number = 60.3

[[record]]
record_smiles = "CCOC(=O)N1CCc2c(sc3c2C(=O)N[C@H](c2ccc(OC)cc2)N3)C1"
test_readout = "growth"
unit_name = "%"
result_number = 98.7


Attention now shifts to the item below.
In: // lookup growth for C/C(=N\NC(N)=S)c1nc2ccc(Cl)cc2[nH]1
Out: 54.6
